# assay.method.text: TOX21_p53_BLA_p5_viability: Viability Assessment in the Tox21 HCT-116 p53 Agonism Beta-lactamase Assay, Phase 5 (AID 2283600)
Inconclusive results are not listed. Calls of active or inactive are those of the source. The calls were made as follows: active = hit-call score of the fitted dose curve at least 0.9, where 1 is the maximum; inconclusive = response in the unintended direction; inactive = score below 0.9.
Your reply should match one of these outcome classes. active, inactive

Query string: For CC(C)[C@H](C(=O)OC(C#N)c1cccc(Oc2ccccc2)c1)c1ccc(OC(F)F)cc1 (stereo partly drawn) , which call appears in the assay record?
Result string: inactive

Query string: For N#CCC#N , which call appears in the assay record?
Result string: inactive

Query string: For Oc1ccc(Cc2ccc(O)cc2)cc1 , which call appears in the assay record?
Result string: inactive

Query string: For CCCCCCCCBr , which call appears in the assay record?
Result string: inactive

Query string: For Nc1ccc(-c2ccccc2)cc1 , which call appears in the assay record?
Result string: inactive

Query string: For ClCCCCl , which call appears in the assay record?
Result string: inactive

Query string: For O=C(Cl)OCCOCCOC(=O)Cl , which call appears in the assay record?
Result string: inactive

Query string: For BrCc1ccc(Br)cc1 , which call appears in the assay record?
Result string: inactive

Query string: For C=CCN=C=S , which call appears in the assay record?
Result string: inactive

Query string: For CCCCS(=O)(=O)Cl , which call appears in the assay record?
Result string: inactive

Query string: For O=C(Cc1ccccc1)OCCc1ccccc1 , which call appears in the assay record?
Result string: inactive

Query string: For O=S1(=O)OC(c2cc(Br)c(O)c(Br)c2)(c2cc(Br)c(O)c(Br)c2)c2ccccc21 , which call appears in the assay record?
Result string: inactive

Query string: For N#CS , which call appears in the assay record?
Result string: inactive

Query string: For CCN(CCO)CCO , which call appears in the assay record?
Result string: inactive

Query string: For Nc1ccc(Br)cc1 , which call appears in the assay record?
Result string: inactive

Query string: For CC(c1ccc(O)cc1)c1ccc(O)cc1 , which call appears in the assay record?
Result string: inactive

Query string: For COP(=S)(OC)Oc1cc(Cl)c(I)cc1Cl , which call appears in the assay record?
Result string: inactive

Query string: For O=C1c2ccccc2C(=O)C1C(=O)C(c1ccccc1)c1ccc(Cl)cc1 (stereo not drawn) , which call appears in the assay record?
Result string: inactive

Query string: For CCOP(=O)(OCC)OC(=CCl)c1ccc(Cl)cc1Cl , which call appears in the assay record?
Result string: inactive

Query string: For O=[N+]([O-])c1cc([As](=O)(O)O)ccc1O , which call appears in the assay record?
Result string: inactive

Query string: For O=C(CBr)c1ccc(O)cc1 , which call appears in the assay record?
Result string: inactive

Query string: For COC(=O)c1cc(Oc2ccc(Cl)cc2Cl)ccc1[N+](=O)[O-] , which call appears in the assay record?
Result string: inactive

Query string: For O=S1OC[C@@H]2[C@H](CO1)[C@]1(Cl)C(Cl)=C(Cl)[C@@]2(Cl)C1(Cl)Cl (stereo partly drawn) , which call appears in the assay record?
Result string: inactive

Query string: For CCN(CC)C(=O)C(Cl)=C(C)OP(=O)(OC)OC , which call appears in the assay record?
Result string: inactive

Query string: For CCCCCCCCCCCCCl , which call appears in the assay record?
Result string: inactive

Query string: For CCCCCCCCCCCCN(C)C , which call appears in the assay record?
Result string: inactive

Query string: For CCCCCCCCCCCCCCC(Br)C(=O)O (stereo not drawn) , which call appears in the assay record?
Result string: active

Query string: For CN(C)[C@@H]1C(=O)C(C(N)=O)=C(O)[C@@]2(O)C(=O)C3=C(O)c4c(O)ccc(Cl)c4[C@@](C)(O)[C@H]3C[C@@H]12 , which call appears in the assay record?
Result string: inactive

Query string: For O=C(NC(=O)c1c(F)cccc1F)Nc1cc(Cl)c(OC(F)(F)C(F)C(F)(F)F)cc1Cl (stereo not drawn) , which call appears in the assay record?
Result string: inactive

Query string: For CCN(N=O)C(N)=O , which call appears in the assay record?
Result string: inactive

Query string: For N#Cc1ccc(Cl)cc1 , which call appears in the assay record?
Result string: inactive

Query string: For CC(C)[N+](=O)[O-] , which call appears in the assay record?
Result string: inactive

Query string: For Cc1cc(Cl)ccc1OC(C)C(=O)O (stereo not drawn) , which call appears in the assay record?
Result string: inactive

Query string: For CCC(C)(C#N)N=NC(C)(C#N)CC (stereo not drawn) , which call appears in the assay record?
Result string: inactive

Query string: For Clc1cnc(Oc2ccc(Oc3ncc(Cl)cc3Cl)cc2)c(Cl)c1 , which call appears in the assay record?
Result string: inactive

Query string: For CCCCN(CCCCO)N=O , which call appears in the assay record?
Result string: inactive

Query string: For C=CC(=O)[O][Sn]([CH2]CCC)([CH2]CCC)[CH2]CCC , which call appears in the assay record?
Result string: active

Query string: For [F][Sn]([c]1ccccc1)([c]1ccccc1)[c]1ccccc1 , which call appears in the assay record?
Result string: active
